tested on: HT-1080; test: Compound was tested for inhibition of proliferation of HT1080 cells; assay type: functional, cell-based; conditions: Homo sapiens
pIC50: −log10 of the molar value.
Recorded pIC50 for the following molecules
value-kind: pIC50

[[record]]
structure_smiles = "CNC(=O)C(=O)CCCCCCC(=O)Nc1nc(-c2ccncc2)cs1"
operator = "="
result_value = 6.17

[[record]]
structure_smiles = "CNC(=O)C(=O)CCCCCCC(=O)Nc1nc(-c2ccc3c(c2)CCCC3)cs1"
operator = "<"
result_value = 4.30

[[record]]
structure_smiles = "CNC(=O)C(=O)CCCCCCC(=O)Nc1cnc2ccccc2c1"
operator = "="
result_value = 5.54

[[record]]
structure_smiles = "CNC(=O)C(=O)CCCCCCC(=O)Nc1nc(-c2ccc(OC)cc2)cs1"
operator = "="
result_value = 5.57

[[record]]
structure_smiles = "CNC(=O)C(=O)CCCCCCC(=O)Nc1cccc(Oc2ccccc2)c1"
operator = "="
result_value = 4.46

[[record]]
structure_smiles = "CNC(=O)C(=O)CCCCCCC(=O)Nc1nc2ccccc2s1"
operator = "="
result_value = 4.89

[[record]]
structure_smiles = "CNC(=O)C(=O)CCCCCCC(=O)Nc1nc(-c2ccccc2)cs1"
operator = "="
result_value = 5.92

[[record]]
structure_smiles = "CNC(=O)C(=O)CCCCCCC(=O)Nc1ccc2cc[nH]c2c1"
operator = "="
result_value = 5.47

[[record]]
structure_smiles = "CNC(=O)C(=O)CCCCCCC(=O)Nc1nc(-c2ccc(CCN(C)C)cc2)cs1"
operator = "="
result_value = 6.92

[[record]]
structure_smiles = "CNC(=O)C(=O)CCCCCCC(=O)Nc1ccc2ccccc2c1"
operator = "="
result_value = 4.77

